# EXPERIMENT: recombinant UMI read abundance after kanamycin selection (control-corrected) (log10(CPM+1)); higher = more efficient recombination; extreme values may be limits of the assay; sequences stand for … in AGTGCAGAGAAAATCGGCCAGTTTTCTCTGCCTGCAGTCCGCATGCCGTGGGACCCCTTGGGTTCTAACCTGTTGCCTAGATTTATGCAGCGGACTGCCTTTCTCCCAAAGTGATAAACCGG…AGGTTGGTTTCACT; site = the 11-nt donor;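 further: IS621 bridge recombinase in Escherichia coli cells against a fixed T5 target plasmid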
// reported recombinant UMI read abundance (log10) per item
ATTRIBUTE_MEASURED: recombinant UMI read abundance (log10)

INSERT INTO measurements (residue_sequence, attribute_measured, result) VALUES
  ('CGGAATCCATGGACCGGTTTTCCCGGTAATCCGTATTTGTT (site TGGAACCCTAA)', 'recombinant UMI read abundance (log10)', 0.0136),
  ('GTGCGAGCATGGACCGGTTTTCCCGGTAATCCGTATTTGCA (site GTACGAGCTTG)', 'recombinant UMI read abundance (log10)', 2.68),
  ('CCATTCTCATGGACCGGTTTTCCCGGTAATCCGTATTTGGG (site CCGTTCTCTCC)', 'recombinant UMI read abundance (log10)', 0.00306),
  ('AAAGTGTCATGGACCGGTTTTCCCGGTAATCCGTATTTGAC (site AATGTGTCTGT)', 'recombinant UMI read abundance (log10)', 0.497),
  ('AACCGTCCATGGACCGGTTTTCCCGGTAATCCGTATTTGAC (site AACCGTCCTCT)', 'recombinant UMI read abundance (log10)', 0.0147);

----------
# EXPERIMENT: recombinant UMI read abundance after kanamycin selection (control-corrected) (log10(CPM+1)); higher = more efficient recombination; extreme values may be limits of the assay; sequences stand for … in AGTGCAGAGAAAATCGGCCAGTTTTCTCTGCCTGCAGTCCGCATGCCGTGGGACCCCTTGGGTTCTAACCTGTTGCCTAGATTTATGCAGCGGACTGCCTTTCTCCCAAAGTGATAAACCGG…AGGTTGGTTTCACT; site = the 11-nt donor
Classification field. Basis: recombinant UMI read abundance (log10). Definitions: low range = under 0.005, mid range = from 0.005 up to 1, high range = 1 and over

INSERT INTO assay_data (residue_sequence, assigned_class) VALUES
  ('AGTCTTACATGGACCGGTTTTCCCGGTAATCCGTATTTGGT (site AGTCTTACTAC)', 'high range'),
  ('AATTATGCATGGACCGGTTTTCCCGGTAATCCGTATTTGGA (site AAGTATGCTTC)', 'high range'),
  ('CCCCCCACATGGACCGGTTTTCCCGGTAATCCGTATTTGTA (site CCCCGCACTTA)', 'mid range'),
  ('CTAGTAGCATGGACCGGTTTTCCCGGTAATCCGTATTTGCC (site CTAGTAGCTGG)', 'high range'),
  ('CGATCCACATGGACCGGTTTTCCCGGTAATCCGTATTTGCT (site CGATCATCTAG)', 'low range'),
  ('TTATGAGCATGGACCGGTTTTCCCGGTAATCCGTATTTGGG (site TTATGAGCTCC)', 'mid range'),
  ('ACCTTTCCATGGACCGGTTTTCCCGGTAATCCGTATTTGGT (site ACCTTTCCTAC)', 'low range'),
  ('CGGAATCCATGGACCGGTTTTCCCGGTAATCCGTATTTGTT (site CGGACTCCTCA)', 'low range'),
  ('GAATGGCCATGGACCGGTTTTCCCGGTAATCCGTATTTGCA (site GAATGACCTTG)', 'low range'),
  ('TAAGAGACATGGACCGGTTTTCCCGGTAATCCGTATTTGCG (site TGAGAGACTCG)', 'mid range'),
  ('TTGCATGCATGGACCGGTTTTCCCGGTAATCCGTATTTGGT (site TTGCATGCTAC)', 'mid range'),
  ('ACACGCACATGGACCGGTTTTCCCGGTAATCCGTATTTGTC (site ACACGAACTGA)', 'high range'),
  ('TCCACCTCATGGACCGGTTTTCCCGGTAATCCGTATTTGCG (site TCCACCCCTCG)', 'mid range'),
  ('GTAGGCACATGGACCGGTTTTCCCGGTAATCCGTATTTGTA (site GTAGGCACTTA)', 'high range'),
  ('CGGGGATCATGGACCGGTTTTCCCGGTAATCCGTATTTGTT (site CGGGGATCTAA)', 'high range'),
  ('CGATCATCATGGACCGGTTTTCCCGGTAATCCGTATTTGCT (site CGATGATCTAG)', 'low range'),
  ('GCCGGTCCATGGACCGGTTTTCCCGGTAATCCGTATTTGCA (site ACCGGTCCTTG)', 'low range');

Just for reference, the supplement of paper PMC11208160 is where these values come from.
